- TARGET OR SYSTEM: Ku70/80ΔC (human, UniProt P12956;P13010 1-609;1-548)
- Sequence (P12956 whole entry, stated change not applied, chain 1 of 2): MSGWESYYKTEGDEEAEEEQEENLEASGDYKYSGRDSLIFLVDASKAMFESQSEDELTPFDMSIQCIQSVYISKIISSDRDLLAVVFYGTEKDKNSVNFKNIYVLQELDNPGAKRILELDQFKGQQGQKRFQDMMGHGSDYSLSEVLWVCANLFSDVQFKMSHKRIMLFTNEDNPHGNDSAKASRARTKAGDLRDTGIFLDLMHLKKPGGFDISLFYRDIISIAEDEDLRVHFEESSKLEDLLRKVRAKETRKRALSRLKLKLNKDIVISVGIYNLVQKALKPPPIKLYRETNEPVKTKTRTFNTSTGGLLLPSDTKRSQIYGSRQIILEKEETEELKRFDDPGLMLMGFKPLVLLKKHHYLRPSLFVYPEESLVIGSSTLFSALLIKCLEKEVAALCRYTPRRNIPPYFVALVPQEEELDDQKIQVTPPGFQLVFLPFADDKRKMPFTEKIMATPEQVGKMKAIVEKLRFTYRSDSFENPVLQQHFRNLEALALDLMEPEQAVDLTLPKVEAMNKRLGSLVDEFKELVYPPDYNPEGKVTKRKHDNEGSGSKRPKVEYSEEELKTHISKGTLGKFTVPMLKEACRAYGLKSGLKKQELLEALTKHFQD
- Sequence (P13010 1-548, stated change not applied, chain 2 of 2): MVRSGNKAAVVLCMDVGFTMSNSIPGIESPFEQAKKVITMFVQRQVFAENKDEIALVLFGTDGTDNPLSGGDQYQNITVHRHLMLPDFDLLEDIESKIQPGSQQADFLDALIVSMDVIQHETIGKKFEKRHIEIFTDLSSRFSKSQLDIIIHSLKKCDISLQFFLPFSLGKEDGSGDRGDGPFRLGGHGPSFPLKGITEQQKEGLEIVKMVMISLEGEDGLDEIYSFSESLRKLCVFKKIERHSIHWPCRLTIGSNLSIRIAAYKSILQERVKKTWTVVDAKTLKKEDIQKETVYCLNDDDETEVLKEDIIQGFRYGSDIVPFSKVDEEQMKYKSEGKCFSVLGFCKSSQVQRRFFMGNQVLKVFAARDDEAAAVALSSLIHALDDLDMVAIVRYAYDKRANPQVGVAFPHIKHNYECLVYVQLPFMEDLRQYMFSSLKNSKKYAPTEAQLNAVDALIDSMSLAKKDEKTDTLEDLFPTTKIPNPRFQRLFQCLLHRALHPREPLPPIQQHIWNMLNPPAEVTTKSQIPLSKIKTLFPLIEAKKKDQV
- METHOD SUMMARY: EMSA; reduced (control), 10 mM Mg2+, probably nM; 50 mM Tris-HCl pH 7.8, 10 mM MgCl2, 50 mM NaCl (FP: plus 1 mM DTT, 0.5 ml; EMSA: 20 μl, 500 fmol DNA); oxidation 2 mM diamide 15 min on ice, re-reduction 5 mM DTT 15 min on ice; binding temperature not stated
- APPLIED CONDITIONS: protein: recombinant; tags: His6 on Ku70; N-terminal His6 (pRSET B) also on Ku80ΔC per Methods; copies: 1;1; label: 32P; blunt
OBSERVABLE: Kd (nM)
Give the value, in units of nM, as a plain number.

Lab note: measured Kd of 30-bp duplex 30A/30C (EMSA) (dsDNA) DNA 1: CCCCTATCCTTTCCGCGTCCTTACTTCCCC DNA 2: GGGGAAGTAAGGACGCGGAAAGGATAGGGG was 51
